Attribution: patent US20260297129A1

system: IL-23 induced STAT3 signaling (IL-23 receptor) in HEK-Blue IL-23 cells; assay: Inhibition of IL-23 induced STAT3 signaling in HEK-Blue IL-23 cells, SEAP reporter (Table 9); assay type: cell-based; conditions: human IL23 0.25 ng/ml, overnight, read-out: Inhibition of IL-23 induced pSTAT3 (IC50 nM)
Numbered stars: 1 amine (or outer) side, 2 acyl side, 3 side chain; on linkers, the order of the positions; unused ones are H or OH. Bridge positions count the residues as written; N and C are the ends. Square brackets hold non-standard residues; d marks the D form. Peptide text beside a SMILES is read from it. * marks the point of attachment. Trp(7-Me) = Cc1cccc2c(C[C@H](N)C(=O)O)c[nH]c12; 2Nal = N[C@@H](Cc1ccc2ccccc2c1)C(=O)O; d2Nal = N[C@H](Cc1ccc2ccccc2c1)C(=O)O; X4 = O=C(CCCCCCCCCCCCCCCN[*:1])[*:2]; 3Pal = N[C@@H](Cc1cccnc1)C(=O)O; Aun = NCCCCCCCCCCC(=O)O; Thp = NC1(C(=O)O)CCOCC1; Me2NCH2CH2 = CN(C)CC*; Aib = CC(C)(N)C(=O)O; Sar = CNCC(=O)O
Measured Metric: IC50 (nM)

[
  {
    "Compound": "Cc1cccc2c(C[C@@H]3NC(=O)CCCCCCCCCCNC(=O)CC[C@@H](C(=O)N[C@@H](CC(N)=O)C(=O)N[C@@H](Cc4cccnc4)C(=O)N(C)CC(N)=O)NC(=O)C(C)(C)NC(=O)[C@@H](Cc4ccc5ccccc5c4)NC(=O)[C@H](Cc4ccc(OCCN(C)C)cc4)NC(=O)C4(CCOCC4)NC(=O)[C@H](CCC(N)=O)NC3=O)c[nH]c12 [compound 4] ([Aun][Trp(7-Me)]Q[Thp]Y(Me2NCH2CH2)[d2Nal][Aib]EN[3Pal][Sar]-NH2; lactam N-8)",
    "Measured Metric": "IC50",
    "Quantitative Readout": 0.14
  },
  {
    "Compound": "Cc1cccc2c(C[C@@H]3NC(=O)CCCCCCCCCCCCCCCNC(=O)CC[C@@H](C(=O)N[C@@H](CC(N)=O)C(=O)N[C@@H](Cc4cccnc4)C(=O)N(C)CC(N)=O)NC(=O)C(C)(C)NC(=O)[C@H](Cc4ccc5ccccc5c4)NC(=O)[C@H](Cc4ccc(OCCN(C)C)cc4)NC(=O)C4(CCOCC4)NC(=O)[C@H](CCC(N)=O)NC3=O)c[nH]c12 [compound 3] ([X4][Trp(7-Me)]Q[Thp]Y(Me2NCH2CH2)[2Nal][Aib]EN[3Pal][Sar]-NH2; lactam N-8)",
    "Measured Metric": "IC50",
    "Quantitative Readout": 9.92
  }
]

---

Parameter: solubility at 2 h. Scope: all listed entries.
assay: Solubility of peptide compounds in buffer formulations (Table 5); type: physicochemical; details: Buffer pH 1.1 (head; method: 50 mM HCl pH 1.2), 2 h agitation, target 1 mg/ml; read-out: Solubility, Buffer pH 1.1
Numbered stars: 1 amine (or outer) side, 2 acyl side, 3 side chain; on linkers, the order of the positions; unused ones are H or OH. Bridge positions count the residues as written; N and C are the ends. Square brackets hold non-standard residues; d marks the D form. Peptide text beside a SMILES is read from it. * marks the point of attachment. Lys(Me,(CH2)4NMe(CH2)4CO) = CN(CCCCC(=O)[*:3])CCCCN(C)CCCC[C@H](N[*:1])C(=O)[*:2]; Trp(7-Me) = Cc1cccc2c(C[C@H](N)C(=O)O)c[nH]c12; 2Nal = N[C@@H](Cc1ccc2ccccc2c1)C(=O)O; 3Pal = N[C@@H](Cc1cccnc1)C(=O)O; Aun = NCCCCCCCCCCC(=O)O; Thp = NC1(C(=O)O)CCOCC1; Me2NCH2CH2 = CN(C)CC*; Aib = CC(C)(N)C(=O)O; Sar = CNCC(=O)O
Measured Metric: solubility at 2 h

[
  {
    "Compound": "CN(C)CCOc1ccc(C[C@@H]2NC(=O)C3(CCOCC3)NC(=O)[C@H](CCC(N)=O)NC(=O)[C@H](Cc3c[nH]c4ccccc34)NC(=O)CCCCN(C)CCCCN(C)CCCC[C@@H](C(=O)N[C@@H](CO)C(=O)N[C@@H](Cc3cccnc3)C(=O)N(C)CC(N)=O)NC(=O)C3(CCOCC3)NC(=O)[C@H](Cc3ccc4ccccc4c3)NC2=O)cc1 [compound 43] (WQ[Thp]Y(Me2NCH2CH2)[2Nal][Thp][Lys(Me,(CH2)4NMe(CH2)4CO)]S[3Pal][Sar]-NH2; lactam N-7)",
    "Result": "≥ 970 µg/mL"
  },
  {
    "Compound": "CC(=O)NCCCC[C@@H]1NC(=O)[C@H](Cc2c[nH]c3c(C)cccc23)NC(=O)CCCCCCCCCCNC(=O)CC[C@@H](C(=O)N[C@@H](CC(N)=O)C(=O)N[C@@H](Cc2cccnc2)C(=O)N(C)CC(N)=O)NC(=O)C(C)(C)NC(=O)[C@H](Cc2ccc3ccccc3c2)NC(=O)[C@H](Cc2ccc(OCCN(C)C)cc2)NC(=O)C2(CCOCC2)NC1=O [compound 16] ([Aun][Trp(7-Me)]K(Ac)[Thp]Y(Me2NCH2CH2)[2Nal][Aib]EN[3Pal][Sar]-NH2; lactam N-8)",
    "Result": "≥ 950 µg/mL"
  }
]
